biological target: Nuclear receptor coactivator 3 (Homo sapiens); assay: SRC3 coactivator transcriptional activity inhibitors, primary screen, cell-based, luminescence (AID 588352); settings: HEK293 GAL4-SRC3 luciferase reporter, at 3.6 µM, stronger effect = higher value;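 note: 0% = DMSO-treated cells and 100% = gossypol-treated cells at 36 µM; higher means less SRC3-driven luciferase light from the GAL4 reporter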
In all, about 360,000 compounds went through this assay and about 620 (0.17%) were called active. The full list was thinned out, with actives kept by preference.
MEASURED QUANTITY: inhibition (%)
Return type: number; implicit unit %.

Sample answers from the record:
INSERT INTO measurements (molecule, assay_system, meas_value) VALUES
  ('Brc1c(CSc2nncc3ccccc23)nc2ccccn12', 'Nuclear receptor coactivator 3 (Homo sapiens)', -11.5),
  ('COc1cccc(Nc2nnc(SCC(=O)N3CC(C)OC(C)C3)s2)c1 (stereo unspecified)', 'Nuclear receptor coactivator 3 (Homo sapiens)', -8.99);

Proceed to the following item.
Answer with the recorded inhibition of O=C(NNS(=O)(=O)Cc1ccccc1)c1ccc([N+](=O)[O-])cc1 only.
-12.1

###

molecular target: Nuclear receptor coactivator 3 (Homo sapiens); assay: SRC3 coactivator transcriptional activity inhibitors, primary screen, cell-based, luminescence (AID 588352); details: HEK293 GAL4-SRC3 luciferase reporter, at 3.6 µM, stronger effect = higher value;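 note: 0% = DMSO-treated cells and 100% = gossypol-treated cells at 36 µM; higher means less SRC3-driven luciferase light from the GAL4 reporter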
The whole screen tested about 360,000 compounds, of which about 620 (0.17%) were called active. The entries come from a sample that favours actives as a whole.
MEASURED QUANTITY: inhibition (%)
Return type: number; implicit unit %.

Sample answers from the record:
INSERT INTO measurements (compound, assay_system, meas_value) VALUES
  ('N=c1c2c(-c3ccccc3)c(-c3ccccc3)n(Cc3ccccc3)c2ncn1CCCO', 'Nuclear receptor coactivator 3 (Homo sapiens)', 62.7),
  ('COCCn1cnc2c1c(=O)n(Cc1ccc(Br)cc1)c(=O)n2Cc1ccccc1', 'Nuclear receptor coactivator 3 (Homo sapiens)', -1.52),
  ('O=C(O)C1CCN(C(=O)OCc2ccccc2)CC1', 'Nuclear receptor coactivator 3 (Homo sapiens)', -70.7),
  ('Cc1nc2c(ncn2-c2ccccc2)c(=O)n1NC(=O)CN1CCCC1', 'Nuclear receptor coactivator 3 (Homo sapiens)', 6.67);

Answer with the recorded inhibition of COC(=O)c1ccc(NC(=O)CSc2nc(N)c(NC(=O)c3ccc(Br)o3)c(=O)[nH]2)cc1 only.
11.5

Answer with the recorded inhibition of CC(C)OC(=O)c1cc(NC(=O)C2C3CCC(O3)C2C(=O)O)cc(C(=O)OC(C)C)c1 (stereo unspecified) only.
6.46

Answer with the recorded inhibition of CN(CC(=O)Nc1c(Cl)cccc1Cl)C(=O)CC1OC(=O)c2ccccc21 (stereo unspecified) only.
12.4

Answer with the recorded inhibition of O=C(NCC1(N2CCCCC2)CCCCC1)c1ccc(NS(=O)(=O)c2ccc(F)cc2)cc1 only.
-2.32

Answer with the recorded inhibition of COc1ccc(C(CNC(=O)c2cccc(S(=O)(=O)Nc3ccc(Br)cc3)c2)N(C)C)cc1 (stereo unspecified) only.
1.78

Answer with the recorded inhibition of Cc1ccc(S(=O)(=O)Nc2ccccc2CNc2c(C)n(C)n(-c3ccccc3)c2=O)cc1 only.
22.2

Answer with the recorded inhibition of COCCn1cnc2c1c(=O)n(CC(=O)NN)c(=O)n2Cc1ccccc1 only.
1.62

Answer with the recorded inhibition of CC[C@H]1CN2CCc3cc(OC)c(OC)cc3[C@@H]2C[C@@H]1C[C@H]1NCCc2cc(OC)c(OC)cc21 only.
94.6

Answer with the recorded inhibition of C=CCSc1nnc(Cn2c(=O)sc3ccccc32)n1C only.
5.67

Answer with the recorded inhibition of FC(F)(F)c1cc(C(F)(F)F)c2ccc(N3CCN(c4ccccc4)CC3)nc2n1 only.
1.84

Answer with the recorded inhibition of O=S(=O)(NCCc1ccc(Cl)cc1)c1cccs1 only.
14

Answer with the recorded inhibition of CCOc1cc(C2/C(=C(/O)c3ccc(S(=O)(=O)N4CCCCC4)cc3)C(=O)C(=O)N2CCOC)ccc1O (stereo unspecified) only.
-17.2

Answer with the recorded inhibition of CCn1c(NC(=O)c2nn(C)cc2Br)nc2ccccc21 only.
9.26

Answer with the recorded inhibition of Cc1ccc(NC(=O)NC(=O)CSc2nnc(-c3ccc(OC(F)F)cc3)n2N)c(C)c1 only.
-17.3

Answer with the recorded inhibition of Cn1cnc(C(F)(F)F)c1-c1ccc([N+](=O)[O-])cc1 only.
9.14

Answer with the recorded inhibition of Cn1sc(=O)c2cc(S(=O)(=O)NC3CC3)ccc21 only.
3.57

Answer with the recorded inhibition of CCCC(NCC(=O)Nc1ccccc1C(=O)NC1CC1)c1ccccc1 (stereo unspecified) only.
4.81
